Biological target: uPAR (Homo sapiens)
Construct: sUPAR, soluble truncated form of the urokinase receptor; made in house; host or cells: baculovirus-infected Sf9 insect cells
Sequence (Q03405 whole entry, looked up, the tested form may be a part): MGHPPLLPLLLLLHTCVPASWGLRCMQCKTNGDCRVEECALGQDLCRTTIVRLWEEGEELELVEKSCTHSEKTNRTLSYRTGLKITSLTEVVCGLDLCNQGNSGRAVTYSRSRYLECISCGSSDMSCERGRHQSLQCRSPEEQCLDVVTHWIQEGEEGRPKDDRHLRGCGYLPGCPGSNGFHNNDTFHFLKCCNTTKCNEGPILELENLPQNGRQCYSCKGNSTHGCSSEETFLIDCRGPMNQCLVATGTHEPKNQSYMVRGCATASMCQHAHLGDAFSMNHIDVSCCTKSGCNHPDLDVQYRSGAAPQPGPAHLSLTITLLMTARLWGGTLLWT
Assay: IC 50 (uM)^2
Ends that are not written are not given here.
experimental.endpoint: IC50

                               substance      measured_target  recorded_value
0     AELDLSTFYDIQYLLRT-NH2 [peptide 18]  uPAR (Homo sapiens)           10 µM
1      AEPVYQYELDSYLRSYY-NH2 [peptide 7]  uPAR (Homo sapiens)           10 µM
2          CLNGGTAVSNKYFSNLHWC [13-32^4]  uPAR (Homo sapiens)         0.25 µM
3  H-AESTYHHLSLGYMYTLN-NH2 [compound 25]  uPAR (Homo sapiens)         > 10 µM
4         H-AEPMPHSLNFSQYLWYT-NH2 [20^4]  uPAR (Homo sapiens)         0.01 µM

* * *

Test system: GPI-uPAR dependent adhesion of 293 cells to vitronectin
Test: Adhesion of GPI-uPAR expressing 293 cells to vitronectin
Assay type: cell-based
experimental.endpoint: IC50

                              substance                           measured_target  recorded_value
0  H-AESTYHHLSLGYMYTLN-NH2 [peptide 25]  GPI-uPAR dependent adhesion of 293 cells to vitronectin          ~60 µM

* * *

Target: soluble uPAR (Homo sapiens, UniProt Q03405)
Sequence (Q03405 23-305 limits assumed): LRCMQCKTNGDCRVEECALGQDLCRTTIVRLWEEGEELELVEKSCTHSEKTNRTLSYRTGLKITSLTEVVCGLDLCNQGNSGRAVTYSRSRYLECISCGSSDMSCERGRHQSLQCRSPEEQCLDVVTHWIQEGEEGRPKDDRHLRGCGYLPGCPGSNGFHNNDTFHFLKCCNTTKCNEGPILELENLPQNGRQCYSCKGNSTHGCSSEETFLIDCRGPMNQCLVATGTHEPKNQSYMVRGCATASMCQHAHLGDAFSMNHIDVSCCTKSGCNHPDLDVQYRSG
Conditions: 2500.0
Marks after values point to notes of the source that are not given here. Square brackets hold non-standard residues; d marks the D form. Peptide text beside a SMILES is read from it.
In this section we review reported % Inhibition 2.5 uM values for a set of compounds.

compound	measured.target	% Inhibition 2.5 uM
CC(C)C[C@H](NC(=O)[C@H](CCCCN)NC(=O)[C@H](Cc1ccccc1)NC(=O)[C@H](Cc1ccccc1)NC(=O)[C@H](CCC(=O)O)NC(=O)[C@H](C)N)C(=O)NCC(=O)N1CCC[C@H]1C(=O)N[C@@H](CC(N)=O)C(=O)N[C@H](C)C(=O)N[C@@H](Cc1ccc(O)cc1)C(=O)N[C@H](C(=O)N[C@@H](Cc1ccc(O)cc1)C(=O)N[C@@H](CC(C)C)C(=O)N[C@@H](Cc1c[nH]cn1)C(=O)N[C@@H](CO)C(=O)N[C@@H](C)C(N)=O)C(C)C [Analog 81] (H-AEFFKLGPN[dA]YVYLHSA-NH2)	soluble uPAR (Homo sapiens, UniProt Q03405)	79%
CC(C)C[C@H](NC(=O)[C@H](CCCCN)NC(=O)[C@H](Cc1ccccc1)NC(=O)[C@H](Cc1ccccc1)NC(=O)[C@H](CCC(=O)O)NC(=O)[C@H](C)N)C(=O)NCC(=O)N1CCC[C@H]1C(=O)N[C@@H](CC(N)=O)C(=O)NCC(=O)N[C@@H](Cc1ccc(O)cc1)C(=O)N[C@H](C(=O)N[C@@H](Cc1ccc(O)cc1)C(=O)N[C@@H](CC(C)C)C(=O)N[C@@H](Cc1c[nH]cn1)C(=O)N[C@@H](CO)C(=O)N[C@H](C)C(N)=O)C(C)C [Analog 96] (H-AEFFKLGPNGYVYLHS[dA]-NH2)	soluble uPAR (Homo sapiens, UniProt Q03405)	38* %
CC(C)C[C@H](NC(=O)[C@H](CCCCN)NC(=O)[C@H](Cc1ccccc1)NC(=O)[C@H](Cc1ccccc1)NC(=O)[C@H](CCC(=O)O)NC(=O)[C@H](C)N)C(=O)NCC(=O)N1CCC[C@H]1C(=O)N[C@@H](CC(N)=O)C(=O)NCC(=O)N[C@@H](Cc1ccc(O)cc1)C(=O)N[C@H](C(=O)N[C@@H](Cc1ccc(O)cc1)C(=O)N[C@@H](CC(C)C)C(=O)N[C@H](Cc1c[nH]cn1)C(=O)N[C@@H](CO)C(=O)N[C@@H](C)C(N)=O)C(C)C [Analog 94] (H-AEFFKLGPNGYVYL[dH]SA-NH2)	soluble uPAR (Homo sapiens, UniProt Q03405)	36%
CC(C)C[C@H](NC(=O)[C@H](CCCCN)NC(=O)[C@H](Cc1ccccc1)NC(=O)[C@H](Cc1ccccc1)NC(=O)[C@H](CCC(=O)O)NC(=O)[C@H](C)N)C(=O)NCC(=O)N1CCC[C@@H]1C(=O)N[C@@H](CC(N)=O)C(=O)NCC(=O)N[C@@H](Cc1ccc(O)cc1)C(=O)N[C@H](C(=O)N[C@@H](Cc1ccc(O)cc1)C(=O)N[C@@H](CC(C)C)C(=O)N[C@@H](Cc1c[nH]cn1)C(=O)N[C@@H](CO)C(=O)N[C@@H](C)C(N)=O)C(C)C [Analog 88] (H-AEFFKLG[dP]NGYVYLHSA-NH2)	soluble uPAR (Homo sapiens, UniProt Q03405)	80* %
